assay: Stability of the compounds: buffer hydrolysis (half-times, shelf-life); type: physicochemical; conditions: pH 7.4; buffer pH 7.40, ionic strength 0.5, 37°C; read-out: Half-times in buffers at 37°C, T½, pH 7.40 (converted)
# reported half-life; entries follow
Numbers only here, please. The scale is min.

Recorded results for 3 compounds are shown here.
compound="CC[C@H](C(=O)OCc1ccc(COC(=O)[C@@H](CC)[C@H](CO)Cc2cncn2C)cc1)[C@H](CO)Cc1cncn1C [Example 1]" measurement=18
compound="CC[C@H](C(=O)OCc1ccccc1COC(=O)[C@@H](CC)[C@H](CO)Cc1cncn1C)[C@H](CO)Cc1cncn1C [Example 3]" measurement=25
compound="CC[C@H](C(=O)OCCCCCCOC(=O)[C@@H](CC)[C@H](CO)Cc1cncn1C)[C@H](CO)Cc1cncn1C [Example 5]" measurement=150

Return reported half-life; argument: CC[C@H](C(=O)OCc1ccc(COC(=O)[C@@H](CC)[C@H](COC(=O)C2CC2)Cc2cncn2C)cc1)[C@H](COC(=O)C1CC1)Cc1cncn1C [Example 13]
213000

Cited source: patent EP0559700B1
